Biological target: Nuclear receptor subfamily 4 group A member 2 (Homo sapiens) (UniProt P43354)
Sequence (P43354 whole entry, looked up): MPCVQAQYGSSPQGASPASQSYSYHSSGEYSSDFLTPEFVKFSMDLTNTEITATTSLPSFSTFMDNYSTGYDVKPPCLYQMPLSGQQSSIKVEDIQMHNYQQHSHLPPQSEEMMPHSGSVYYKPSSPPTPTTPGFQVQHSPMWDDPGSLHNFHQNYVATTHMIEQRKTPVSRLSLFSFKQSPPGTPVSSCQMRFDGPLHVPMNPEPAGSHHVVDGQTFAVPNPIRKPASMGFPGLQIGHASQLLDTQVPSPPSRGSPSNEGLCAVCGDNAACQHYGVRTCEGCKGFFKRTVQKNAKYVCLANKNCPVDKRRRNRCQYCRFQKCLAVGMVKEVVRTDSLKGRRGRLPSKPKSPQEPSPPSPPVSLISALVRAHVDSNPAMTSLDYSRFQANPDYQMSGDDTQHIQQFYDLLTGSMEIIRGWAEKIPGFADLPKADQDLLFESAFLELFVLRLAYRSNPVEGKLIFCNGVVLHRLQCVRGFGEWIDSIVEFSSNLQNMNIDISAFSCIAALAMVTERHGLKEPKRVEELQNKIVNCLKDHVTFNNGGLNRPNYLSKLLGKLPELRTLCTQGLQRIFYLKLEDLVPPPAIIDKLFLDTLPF
Assay: ATG_NURR1_TRANS: Attagene TRANS-FACTORIAL HepG2 Assay for human Nuclear Receptor Related Protein 1 (NURR1) (AID 2282985)
Conditions: HepG2 Attagene TRANS reporter, mRNA readout
Results filed as inconclusive are left out. Activity calls are given as the source filed them. Rule for the calls: active = hit-call score of the fitted dose curve at least 0.9, where 1 is the maximum; inconclusive = response in the unintended direction; inactive = score below 0.9.
Outcome codes: active, inactive

{"compound": "CCCCC(CC)COC(=O)c1ccccc1O (stereo not given)", "assayed.target": "Nuclear receptor subfamily 4 group A member 2 (Homo sapiens) (UniProt P43354)", "category.label": "inactive"}
{"compound": "C=C(C)CCO", "assayed.target": "Nuclear receptor subfamily 4 group A member 2 (Homo sapiens) (UniProt P43354)", "category.label": "inactive"}
{"compound": "CC1=CC[C@H](C(C)C)C=C1", "assayed.target": "Nuclear receptor subfamily 4 group A member 2 (Homo sapiens) (UniProt P43354)", "category.label": "inactive"}
{"compound": "CN(C)c1ccc(N=Nc2ccccc2C(=O)O)cc1", "assayed.target": "Nuclear receptor subfamily 4 group A member 2 (Homo sapiens) (UniProt P43354)", "category.label": "inactive"}
{"compound": "CCC(C)C=O (stereo not given)", "assayed.target": "Nuclear receptor subfamily 4 group A member 2 (Homo sapiens) (UniProt P43354)", "category.label": "inactive"}
{"compound": "CCCCCCCCCCCCCCCC[N+](C)(C)CC", "assayed.target": "Nuclear receptor subfamily 4 group A member 2 (Homo sapiens) (UniProt P43354)", "category.label": "inactive"}
{"compound": "O=C1c2cccc(O)c2C(=O)c2c(O)cc(CO)cc21", "assayed.target": "Nuclear receptor subfamily 4 group A member 2 (Homo sapiens) (UniProt P43354)", "category.label": "inactive"}
{"compound": "CC(=O)Oc1ccc(C(C)=O)cc1", "assayed.target": "Nuclear receptor subfamily 4 group A member 2 (Homo sapiens) (UniProt P43354)", "category.label": "inactive"}
{"compound": "CC(=O)Nc1ccc2c(c1)Cc1cc(NC(C)=O)ccc1-2", "assayed.target": "Nuclear receptor subfamily 4 group A member 2 (Homo sapiens) (UniProt P43354)", "category.label": "inactive"}
{"compound": "CCCCCCCCO[C@@H]1O[C@H](CO)[C@@H](O)[C@H](O)[C@H]1O", "assayed.target": "Nuclear receptor subfamily 4 group A member 2 (Homo sapiens) (UniProt P43354)", "category.label": "inactive"}
{"compound": "Cc1cc(C)c(C)c(O)c1", "assayed.target": "Nuclear receptor subfamily 4 group A member 2 (Homo sapiens) (UniProt P43354)", "category.label": "inactive"}
{"compound": "C=CCOCC(O)CCl (stereo not given)", "assayed.target": "Nuclear receptor subfamily 4 group A member 2 (Homo sapiens) (UniProt P43354)", "category.label": "inactive"}
{"compound": "CCCCCCCCc1ccc(Nc2ccc(CCCCCCCC)cc2)cc1", "assayed.target": "Nuclear receptor subfamily 4 group A member 2 (Homo sapiens) (UniProt P43354)", "category.label": "inactive"}
{"compound": "O=C(/C=C/C=C/c1ccc2c(c1)OCO2)N1CCCCC1", "assayed.target": "Nuclear receptor subfamily 4 group A member 2 (Homo sapiens) (UniProt P43354)", "category.label": "inactive"}
{"compound": "CCc1ccc2c(c1)C(=O)c1ccccc1C2=O", "assayed.target": "Nuclear receptor subfamily 4 group A member 2 (Homo sapiens) (UniProt P43354)", "category.label": "inactive"}
{"compound": "NC(CO)(CO)CO", "assayed.target": "Nuclear receptor subfamily 4 group A member 2 (Homo sapiens) (UniProt P43354)", "category.label": "inactive"}
{"compound": "CC(C)(c1cc(Br)c(OCCO)c(Br)c1)c1cc(Br)c(OCCO)c(Br)c1", "assayed.target": "Nuclear receptor subfamily 4 group A member 2 (Homo sapiens) (UniProt P43354)", "category.label": "active"}
{"compound": "CCCC(C)CCC(C)=O (stereo not given)", "assayed.target": "Nuclear receptor subfamily 4 group A member 2 (Homo sapiens) (UniProt P43354)", "category.label": "inactive"}
{"compound": "CC[C@H]1OC(=O)[C@H](C)[C@@H](O[C@H]2C[C@@](C)(OC)[C@@H](O)[C@H](C)O2)[C@H](C)[C@@H](O[C@@H]2O[C@H](C)C[C@H](N(C)C)[C@H]2O)[C@](C)(O)C[C@@H](C)C(=NOCOCCOC)[C@H](C)[C@@H](O)[C@]1(C)O", "assayed.target": "Nuclear receptor subfamily 4 group A member 2 (Homo sapiens) (UniProt P43354)", "category.label": "inactive"}
{"compound": "NC(=O)OCC(COC(N)=O)c1ccccc1", "assayed.target": "Nuclear receptor subfamily 4 group A member 2 (Homo sapiens) (UniProt P43354)", "category.label": "inactive"}
{"compound": "O=[N+]([O-])C1(Br)COCOC1", "assayed.target": "Nuclear receptor subfamily 4 group A member 2 (Homo sapiens) (UniProt P43354)", "category.label": "inactive"}
{"compound": "O=C(Nc1ccccc1)c1ccccc1O", "assayed.target": "Nuclear receptor subfamily 4 group A member 2 (Homo sapiens) (UniProt P43354)", "category.label": "inactive"}
{"compound": "CCN(Cc1cccc(S(=O)(=O)O)c1)c1ccc(C(=C2C=CC(=[N+](CC)Cc3cccc(S(=O)(=O)[O-])c3)C=C2)c2ccccc2)cc1", "assayed.target": "Nuclear receptor subfamily 4 group A member 2 (Homo sapiens) (UniProt P43354)", "category.label": "inactive"}
{"compound": "Cc1ccc(N/N=c2\\c(=O)cc/c(=N/Nc3ccc(S(=O)(=O)O)cc3)c2=O)c(C)c1", "assayed.target": "Nuclear receptor subfamily 4 group A member 2 (Homo sapiens) (UniProt P43354)", "category.label": "inactive"}
{"compound": "CCCCCCCCC(=O)OCC", "assayed.target": "Nuclear receptor subfamily 4 group A member 2 (Homo sapiens) (UniProt P43354)", "category.label": "inactive"}
